Values compiled from ChEMBL document CHEMBL1201862.

Test system: U-251
Test: NCI tumour cell line growth inhibition, 48 h
Activity calls are given as the source filed them. Rule as the data show it: active = GI50 up to about 1.1 µM and inactive = higher.
outcome-measure: GI50

COc1ccc(-c2nc3ccccc3s2)cc1OC    53.8 µM (inactive)

Provide GI50 values for the following items, in order.
1. CC(=O)OC/C=C\Cn1nc(Br)c(=O)[nH]c1=O
2. CC(C)=CCC12Cc3ccc(O)cc3C(C(C)CN1)C2C (stereo unspecified)
3. O=C1CCCC2=C1CC1=C(CCCC1=O)N2c1ccc(-c2ccccc2)cc1
4. Cn1c(-c2ccccc2)cc(-c2ccc3c(c2)OCO3)c1-c1ccsc1
5. COc1ccc(OC)c(NC(=O)C2=C(C)NC(C)=C(C(=O)Nc3cc(OC)ccc3OC)C2c2ccccc2)c1
6. Fc1sc2c(c1F)C1CCC2C1 (stereo unspecified)

1. 10.5 µM (inactive)
2. 83.4 µM (inactive)
3. > 75 µM (inactive)
4. > 100 µM (inactive)
5. > 100 µM (inactive)
6. 97.7 µM (inactive)

Provide GI50 values for the following items, in order.
1. CC(C)=CCC[C@@H](C)C1=C(Nc2ccccc2Cl)C(=O)C(C)=C(O)C1=O
2. O=C(CC(=O)N1N=C(n2ccc3ccccc32)CC1c1ccccc1)Nc1cccc(Cl)c1 (stereo unspecified)
3. CCOC(=O)C1c2[nH]c3ccccc3c2CCN1C(=O)c1ccco1 (stereo unspecified)

1. 4.27 µM (inactive)
2. > 100 µM (inactive)
3. > 10 µM (inactive)

Requested read-out GI50, target or system U-251, entry Cc1ccccc1NC(=O)CC(=O)NNCC(=O)Nc1nnc(-c2ccccc2)s1
50 µM (inactive)

====

Test system: Hs-578T
Test: NCI tumour cell line growth inhibition, 48 h
Activity calls are given as the source filed them. No stated cut-off is given here; in the data, active = GI50 up to about 1.1 µM and inactive = higher.
Returns: one label drawn from 1 (yes) for active, 0 (no) for inactive

These solved cases illustrate the format of a correct answer.
[BH3-][P+]1(CC[P@@+]([BH3-])(c2ccccc2)c2ccccc2OC)[C@@H](C)[C@@H](O)[C@H](O)[C@@H]1C (stereo partly drawn)    0 (no)
OCC1OC(c2scc3c(=S)[nH]cnc23)C(O)C1O (stereo not drawn)    0 (no)
COC1=CC(=O)C(O)=C(C[C@@]2(C)[C@@H]3CCC[C@H](COC(=O)CCCCCNC(=O)OC(C)(C)C)[C@@]3(C)CC[C@@H]2C)C1=O    0 (no)
CC(C)C1OC(=O)/C=C/C=C/C=C/C=C/C=C/CC(O)C(C)C(O)CC(O)CC(O)CC(O)CC(O)CC(O)CC(O)/C=C/C1C (stereo not drawn)    0 (no)
Cc1c(N)nc(C(CC(N)=O)NCC(N)C(N)=O)nc1C(=O)NC(C(=O)NC(C)C(O)C(C)C(=O)NC(C(=O)NCCc1nc(-c2nc(C(=O)NCCCNC(C)c3ccccc3)cs2)cs1)C(C)O)C(OC1OC(CO)C(O)C(O)C1OC1OC(CO)C(O)C(OC(N)=O)C1O)c1c[nH]cn1 (stereo not drawn)    1 (yes)
COC(=O)/C(=C\Nc1cccc(C)n1)S(=O)(=O)c1ccc(C)cc1    0 (no)

Record request — test call for COc1ccc(/C=N/c2nc3cc4sc(/N=C/c5ccc(OC)cc5)nc4cc3s2)cc1
0 (no)

And Nc1ccn(C2OC(C(OC3OC(CO)C(O)C(N)C3O)C(O)C(O)C(O)C(O)CO)C(N)C(O)C2O)c(=O)n1 (stereo not drawn) ?
0 (no)

And Cc1nc(C)c(N2CCN(CN)CC2)c(O)n1 ?
0 (no)

And CCN1/C(=C/C#C/C(C)=C\c2sc3ccccc3[n+]2CC)Sc2ccccc21 ?
0 (no)

And CCC(C#N)N(Cc1ccc(CN(C(=O)c2ccccc2)C(C#N)CC)cc1)C(=O)c1ccccc1 (stereo not drawn) ?
0 (no)

And O=C1c2ccccc2C(=O)c2c(NCCNC(=O)C3CCCN3)ccc(NCCNC(=O)C3CCCN3)c21 (stereo not drawn) ?
0 (no)

And CN(C)CC1CCC/C(=C\c2ccc(N(C)C)cc2)C1=O (stereo not drawn) ?
0 (no)

And COc1cc(S(=O)(=O)Nc2ccc(-c3csc(N4C(=O)C(Cl)C4c4cccs4)n3)cc2)ccc1Cl (stereo not drawn) ?
0 (no)

And CCN(CC)CCNc1ccc([N+](=O)[O-])c2nc3ccccc3c(N)c12 ?
1 (yes)

And COc1cc(C2C3=C(COC3=O)OC(C)(C)Oc3cc4c(cc32)OCO4)cc(OC)c1O (stereo not drawn) ?
0 (no)

And OC(c1ccco1)C(F)(F)c1nc2ccccc2o1 (stereo not drawn) ?
0 (no)

And N=C1N(/N=C/c2ccccn2)/C(=N\c2ccccc2)C(=S)N1c1ccccc1 ?
0 (no)

====

Test system: CAKI-1
Experiment: NCI tumour cell line growth inhibition, 48 h
Activity calls are given as the source filed them. No stated cut-off is given here; in the data, active = GI50 up to about 1.1 µM and inactive = higher.
Returns: one label drawn from class 1 for active, class 0 for inactive

These solved cases illustrate the format of a correct answer.
Cn1cnc(N2CCCC2)c(C#N)c1=O    class 0
CC(C)(C)OC(=O)N(CCCCNC(=O)OCc1ccccc1)CCCNC(=O)OCc1ccccc1    class 0
Cc1cccc(NC2=NC(=O)C(CC(=O)Nc3ccccc3Cl)S2)c1 (stereo not given)    class 0
Cn1c(=O)c(C(c2ccc([N+](=O)[O-])cc2)c2c(O)c3ccccc3n(C)c2=O)cc2ccccc21 (stereo not given)    class 0
CC(C)C1=Cc2ccc3c(c2C(=O)C1=O)CCCC3(C)C    class 0

Record request — test call for C#CCOCC12C=CC(O1)C1COC(=O)C12 (stereo not given)
class 0

And CNC(=S)N/N=C1\CC(c2ccccc2)Oc2ccccc21 (stereo not given) ?
class 0

And Cc1ccc(C(=O)Nc2ccc(CP(=O)(O)O)cc2)cc1NC(=O)c1cccc(NC(=O)Nc2cccc(C(=O)Nc3cc(C(=O)Nc4ccc(CP(=O)(O)O)cc4)ccc3C)c2)c1 ?
class 0

====

System: SF-295
Assay: NCI tumour cell line growth inhibition, 48 h
The source made the active and inactive calls. Cut-off read from the data, not from the text of the source: active = GI50 up to about 1.1 µM and inactive = higher.
Please provide measured GI50 for the entries that follow.

CCOC(=O)N1CCN(C(=O)Nc2cccc3ccccc23)CC1    > 10 µM (inactive)
CC1(C)CC(=O)C(Cc2ccccc2)(Cc2ccccc2)C(=O)C1    > 100 µM (inactive)

Provide GI50 values for the following items, in order.
1. COc1ccc(C2C3=C(COC3=O)Oc3cc4c(cc32)OCO4)cc1 (centres undefined)
2. C#CCOCC12C=CC(O1)C1COC(=O)C12 (centres undefined)
3. CN(c1ccccc1Cl)S(=O)(=O)c1ccccc1[N+](=O)[O-]
4. CC(C)=CCC/C(C)=C/Cc1cc(/C=C/c2cc(O)c(CC=C(C)C)c(O)c2)cc(O)c1O
5. CCOC(=O)C1=C(Nc2cccc3ccccc23)OC/C1=N\NC(=O)c1ccccc1O

5.15 µM (inactive)
> 100 µM (inactive)
71.4 µM (inactive)
4.65 µM (inactive)
22.8 µM (inactive)

Provide GI50 values for the following items, in order.
1. CC[C@H](C)C1=C(OC(C)=O)[N@+]2([O-])Oc3ccc(-c4c(O)c(O)c(-c5ccc(OC(C)=O)cc5)c(OC(C)=O)c4OC(C)=O)cc3O[C@]2([C@@H](C)CC)C(=O)N1O
2. O=C1CSC(C(/N=N/c2ccccc2)=C2Nc3ccccc3N2)=N1

1: 22.8 µM (inactive); 2: 22.1 µM (inactive)

====

Please provide measured GI50 for the entries that follow.
Test system: SW-620
Test: NCI tumour cell line growth inhibition, 48 h
Active and inactive are the calls of the source. Cut-off read from the data, not from the text of the source: active = GI50 up to about 1.1 µM and inactive = higher.

NC(C(F)(F)F)(C(F)(F)F)P(=O)(Cc1ccccc1)Cc1ccccc1    > 100 µM (inactive)
CC(C)C1OC(=O)/C=C/C=C/C=C/C=C/C=C/CC(O)C(C)C(O)CC(O)CC(O)CC(O)CC(O)CC(O)CC(O)/C=C/C1C (centres undefined)    > 100 µM (inactive)
COC(=O)c1c(C#C[Si](C)(C)C)c(C#C[Si](C)(C)C)c(C#C[Si](C)(C)C)c(C#C[Si](C)(C)C)c1C(=O)OC    > 100 µM (inactive)
CCOC(=O)c1csc(-c2cn(C)c3c2C(=O)C(OC)=CC3=O)n1    55.2 µM (inactive)

Provide GI50 values for the following items, in order.
1. N#CC(C#N)=Cc1ccc(CP(=O)(O)O)cc1
2. BrC(Br)([P+](c1ccccc1)(c1ccccc1)c1ccccc1)[P+](c1ccccc1)(c1ccccc1)c1ccccc1
3. CSc1ccc(NC(=O)C2CCCCC2C(=O)O)cc1 (centres undefined)
4. Cn1ccnc1SC(F)(F)c1nc2ccccc2o1

["> 100 µM (inactive)", "12.2 µM (inactive)", "> 100 µM (inactive)", "> 100 µM (inactive)"]

Requested read-out GI50, target or system SW-620, entry O=C(CC(=O)N1N=C(n2ccc3ccccc32)CC1c1ccccc1)Nc1cccc(Cl)c1 (centres undefined)
> 100 µM (inactive)
